- Protocol text: solvent given as SMILES
- Experimental parameters: in ClCCl
Rule: absorption maximum below 500 nm gives class 1, anything at or above gives class 0.

Determine whether this compound shows absorption maximum lower than 500 nm (ties excluded): "N#Cc1ccc(N)c2nonc12"
class 1

Consider the compound "CCCCCCCc1ccc(C2=[N+]3C(=C4c5cc(OCC(CC)CC)c(-c6ccc(CCCCCCC)o6)n5[B-](F)(F)[n+]5c4n(c4cc(C(C)(C)C)ccc45)[B-]3(F)F)C=C2OCC(CC)CC)o1" . Is its absorption maximum strictly less than 500 nm?
class 0

Regarding "F[B-]1(F)n2c(c3ccccc3c2-c2ccccc2)N=C2c3ccccc3C(c3ccccc3)=[N+]21" , kindly confirm whether its absorption maximum is beneath 500 nm.
class 0

Criterion: absorption maximum strictly below 500 nm. Is it met by "COc1c2ccccc2c(OC)c2c1c1ccc(F)cc1n2C" ?
class 1

Answer whether the compound "CN(C)c1ccc(/C=C/c2cc[n+](C)cc2)cc1" has absorption maximum strictly less than 500 nm
class 0

Hello, I'm reviewing records and need to know if absorption maximum of "O=S(=O)(/N=c1\oc2cccc3c4c(-c5ccccc5)oc5cccc(c(c1-c1ccccc1)c23)c54)C(F)(F)F" is below 500 nm. Could you check?
class 1

For this compound, is absorption maximum lower than 500 nm? "CC(=O)c1nc(-c2ccc(C)cc2)oc1C"
class 1

Confirm or reject: absorption maximum of "O=C(c1ccc(N(c2ccccc2)c2ccccc2)cc1)[C@H]1[C@H](c2cccs2)C[C@](O)(c2ccccn2)C[C@]1(O)c1ccccn1" lies strictly below 500 nm
class 1

State whether 500 nm exceeds absorption maximum recorded for CCCCCc1c(C(=O)c2ccc3c4c(cccc24)-c2cccc4c2C3CC=C4)c2ccc3cccc4c5cccc6ccc1c(c65)c2c34 (centres undefined) .
class 1

Source of measurements: the Deep4Chem optical property database
